Tested on: Escherichia coli TOP10;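 also: peptides expressed intracellularly from a pBAD plasmid library in pooled LB shake-flask culture, induced with 0.3% L-arabinose, DNA abundance read by NGS, three biological replicates, DESeq2 with apeglm shrinkage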
Experiment: shrunken log2 fold change of peptide-encoding DNA abundance (4.5 h post-induction vs induction); higher = less antimicrobial activity (less host growth inhibition)
Conditions: time post-induction: 4.5 h; library: site-saturation at positions 5, 18, 19, 20
Output 1 for shrunken log2 fold change not less than 0.06; output -1 otherwise.

{"seq-text": "RRIRCRPPRLPRPRPRPNEFPRP", "group-label": 1}
{"seq-text": "RRIRDRPPRLPRPRPRPNEDPRP", "group-label": -1}
{"seq-text": "RRIRMRPPRLPRPRPRPNCIPRP", "group-label": 1}
{"seq-text": "RRIRQRPPRLPRPRPRPNPKPRP", "group-label": -1}
{"seq-text": "RRIRPRPPRLPRPRPRPWKVPRP", "group-label": -1}
